Tested on: P. falciparum stage V gametocytes
assayOverview: microbe, parasite or virus in culture
Design: BacTiter-Glo ATP luminescence viability of purified stage V gametocytes in 384-well plates, per cent inhibition versus DMSO
measurementParameters: Plasmodium falciparum, 48 h, read-out: % Inhibition
metricName: inhibition at 5 µM (%)

Cc1cc(Br)cnc1CCCCN=C1NC(=O)CN1C: 5.26
Cc1cc(N/N=C/c2ccccc2[N+](=O)[O-])c2cc(C(F)(F)F)ccc2n1: 4.83
CCCCN(CCCC)C(=O)CC(O)c1cc2c(Cl)cc(Cl)cc2c2cc(C(F)(F)F)ccc12 (stereo not shown): 14.8
Fc1ccc2c(NN=Cc3ccc(Cl)cc3)ccnc2c1: 61.1
COc1ccc2nc(C)cc(NN=Cc3cc(OC)c(OC)cc3OC)c2c1: -26
COc1ccc2c(NN=Cc3ccc(Cl)cc3)ccnc2c1: -15.3
FC(F)(F)c1ccc2nccc(NN=Cc3ccc(Cl)cc3)c2c1: 1.69
Cc1c(N=O)cc(C(C)(C)C)c(O)c1C(=O)Nc1ccc([N+](=O)[O-])cc1Cl: 32.7
CCOc1ccc2c(NN=Cc3cc(OC)c(OC)cc3OC)cc(C)nc2c1: 101
COc1ccc2nccc(NN=Cc3ccc([N+](=O)[O-])cc3)c2c1: -3.02
COc1ccc2ccccc2c1C=NNc1cc(C)nc2c(C)cccc12: 35.2
COc1ccc2ccccc2c1C=NNc1ccnc2ccc(F)cc12: -11.1
CCCCOP(=O)(OCCCC)C(=Cc1ccc(O)c2ccccc12)P(=O)(OCCCC)OCCCC: -25.7
COc1cccc2c(NN=Cc3cccc(F)c3)ccnc12: 74.3
Cc1cc(NN=Cc2ccccc2Cl)c2ccc(F)cc2n1: -52.4
COc1ccc(C=NNc2ccnc3cc(F)c(C)cc23)c2ccccc12: -8.9
Nc1cc(-c2ccc3ccccc3c2)nc2ccccc12: 1.22
OC(c1cc(C(F)(F)F)nc2c(F)cccc12)C1CCCCN1 (stereo not shown): 37.8
COc1ccc2nc3cc(Cl)ccc3c(Nc3ccc(O)c(CNC(C)C)c3)c2c1: 57.9

---

Test system: P. falciparum stage V gametocytes
assayOverview: microbe, parasite or virus in culture
Parameters: BacTiter-Glo ATP luminescence viability of purified stage V gametocytes in 384-well plates, per cent inhibition versus DMSO
measurementParameters: Plasmodium falciparum, 48 h, read-out: % Inhibition
Hi, to clarify the labels: Y covers inhibition at 5 µM from 20% upward, N covers anything below 20%.

Nc1c(I)cc(C(=O)Nc2ccc3nc4c(c(N)c3c2)CCCC4)cc1I: Y
COc1ccc2c(NN=Cc3ccc(F)cc3)ccnc2c1: N
CC(C)(C)CC(C)(C)c1ccc(O)c(C(=O)Nc2cccc([N+](=O)[O-])c2)c1: N
COc1ccccc1-c1nc2nc(N)nc(N)c2nc1-c1ccccc1OC: N
COc1ccc2c(NN=Cc3ccc(OC)c4ccccc34)cc(C)nc2c1: Y

---

Tested on: P. falciparum stage V gametocytes
assayOverview: Gametocytocidal ATP bioluminescence assay (single point 5 μM and 1 μM, dose-response)
Assay type: cell-based, Plasmodium falciparum
measurementParameters: Plasmodium falciparum; P. falciparum gametocytes; average; read-out: IC50 Pf Gametocytes average, IC50 (µM) average
Below is a list of entries, each paired with its recorded IC50 value.
metricName: IC50 (µM)

CCN(CC)C(=NC(=N)NCCCCCCNC(=N)N=C(Nc1ccc(Cl)cc1)N(CC)CC)Nc1ccc(Cl)cc1: 0.37
Cc1cccc2nc(-c3ccc(-c4ccc(CNCc5ccc(CN)cc5)cc4)s3)[nH]c12: 0.86
CCN(CC)Cc1cc(Nc2c3ccc(Cl)cc3nc3cccc(OC)c23)ccc1O: 1
COc1ccc2nc(-c3ccccc3)cc(NCCCNc3cc(-c4ccccc4)nc4ccc(OC)cc34)c2c1.Cl: 1.21
COc1cccc(-c2csc(C(=O)NCC3CCN(Cc4ccc(C(C)(C)C)cc4)C3)c2)c1 (stereo not shown): 0.23
COc1ccc(CNC(=O)c2cnc3c(O)cccc3c2Nc2cccc(NC(=O)c3ccc(Cl)c(Cl)c3)c2)cc1.O=C(O)C(F)(F)F: 0.68
N=C(NCC1CC1c1ccccc1)c1cccc(C(=N)NCC2CC2c2ccccc2)n1 (stereo not shown): 0.45
S=C(NN=Cc1ccccn1)Nc1ccc2c(c1)OCCO2: 0.83
Cc1cccnc1Nc1nc(-c2ccccn2)cs1: 0.1
CC(C)(C)c1ccc(CN2CCC(CNC(=O)c3cc(-c4cccc(C(F)(F)F)c4)cs3)C2)cc1 (stereo not shown): 0.42
CS(=O)(=O)c1cccc(-c2cnc3[nH]cc(-c4cccc(CCN)c4)c3c2)c1: 0.47
CCc1nn2c(Nc3ccncc3)cc(C)nc2c1-c1ccccc1: 1.9
Fc1ccc2[nH]c(-c3cccc(-c4ccc(CNCCN5CCNCC5)cc4)c3)nc2c1: 1.45
c1cc(C2=N[C@H]3CCCC[C@@H]3N2)ccc1OCCCOc1ccc(C2=N[C@@H]3CCCC[C@H]3N2)cc1: 0.47
COc1ccc2nc3cc(Cl)ccc3c(NCCCCN3CCNCC3)c2c1: 0.66
COc1ccc2nc3cc(Cl)ccc3c(NCCCCNc3c4ccc(Cl)cc4nc4ccc(OC)cc34)c2c1: 0.2
Nc1cc(C=Cc2ccc([N+](=O)[O-])o2)nc2ccccc12: 0.2
CC(C)(C)c1ccc(CN2CCC(CNC(=O)c3cc(-c4ccccc4C(F)(F)F)cs3)C2)cc1 (stereo not shown): 0.31
FC(F)(F)c1ccc2[nH]c(-c3ccc(-c4cccc(CN5CCC(CCN6CCCCC6)CC5)c4)cc3)nc2c1: 0.51
COc1cc2c(c(Cl)c1OC)CCN(C(=O)C(F)(F)F)CC2c1ccccc1 (stereo not shown): 1.95
Cc1ccc(C)c(CC(=O)N2CCC(n3c(C)nc4ccc(F)cc43)CC2)c1: 0.92
CCc1ccc(CN2CCC(CNC(=O)c3cc(-c4cccc(F)c4)cs3)C2)cc1 (stereo not shown): 1.26
O=c1c(Br)ccccc1Br: 0.21
COc1ccc(COc2cc(NCCCN)nc3ccccc23)cc1: 0.56
Cc1sc2ncnc(Sc3nnc(N)s3)c2c1C: 0.3
Cn1nc(C(F)(F)F)c(-c2ccc(Br)cc2)c1NC(=O)Cc1ccccc1F: 1.79
COc1cc(CCNC(=N)/C=C/c2ccc(Cl)cc2)ccc1Cl: 0.28
CC(=NNC(=S)NCCc1ccccn1)c1ccccn1: 1.49
C=C[C@H]1CN(CCCCCCC)CC[C@H]1CCNc1ccnc2ccc(OC)cc12: 1.08
CN1CCN(CCCN(Cc2ccc(-c3cccc(CNC4CCCC4)c3)cc2)C(=O)Nc2ccccc2)CC1: 0.18
S=C(NN=Cc1ccccn1)NC1CC2C=CC1C2 (stereo not shown): 0.11
[O-][s+]1c(Cl)c(-c2ccc(Cl)cc2)c2ccc(Cl)cc21 (stereo not shown): 0.02
Cc1cc(Nc2ccncc2)n2nc(C)c(-c3ccc(Cl)cc3)c2n1: 0.91
c1cc(CN2CCC(CCN3CCCCC3)CC2)cc(-c2cccc(-c3nc4ccccc4[nH]3)c2)c1: 0.29

---

System: luciferase reaction (BacTiter-Glo)
assayOverview: Interference assay (inhibition of the BacTiter-Glo luciferase reaction)
Format: biochemical
Parameters: concentration or dose not given beside the values
measurementParameters: ATP interference assay
metricName: % Control luminiscence (%)

CC(C)CCNC(=O)c1cnc2c(O)cccc2c1Nc1cccc(NC(=O)c2ccc(F)cc2)c1.O=C(O)C(F)(F)F [TCMDC-139606]: 98
COc1cc2nc(N3CCN(C(=O)c4c(Cl)nsc4-c4ccccc4Cl)CC3)nc(N)c2cc1OC.O=C(O)C(F)(F)F [TCMDC-138186]: 100
NC1CCN(Cc2ccc(-c3ccc(-c4nc5cc(F)ccc5[nH]4)cc3)cc2)C1 (centres unmarked) [TCMDC-133872]: 100
Fc1ccc2[nH]c(-c3cccc(-c4cccc(CNCCN5CCNCC5)c4)c3)nc2c1 [TCMDC-132860]: 100
Cc1cc(OCCN2CCCCC2)ccc1NC(=O)c1cccc2c(=O)n(Cc3ccc(Cl)cc3)cnc12 [TCMDC-136727]: 97
CN(C)CCNCc1cccc(-c2ccc3c(Nc4ccc(Oc5ccccn5)cc4)ccnc3c2)c1 [TCMDC-138493]: 100
CCc1[nH]nc(C(=O)NC2CCN(CC3(c4ccc(OC)cc4)CCCCC3)CC2)c1C [TCMDC-124840]: 100
O=C(COc1ccccc1)N(Cc1ccc(-c2ccc(CNC3Cc4ccccc4C3)cc2)cc1)C1CCNCC1 [TCMDC-141450]: 100
O=C(Nc1nc(-c2ccccn2)cc2ccccc12)c1cccc(Cl)c1 [TCMDC-123886]: 100
Fc1ccc2[nH]c(-c3ccc(-c4ccc(CN5CCC(CCN6CCCCC6)CC5)cc4)s3)nc2c1 [TCMDC-133932]: 100
Fc1ccc2[nH]c(-c3cccc(-c4ccc(CN5CCC(CCN6CCCCC6)CC5)cc4)c3)nc2c1 [TCMDC-133940]: 100
Cc1cccnc1Nc1nc(-c2ccccn2)cs1 [TCMDC-125846]: 100
CC(C)CNCc1ccc(-c2ccc(CN(CCCN3CCN(C)CC3)C(=O)CCC3CCCC3)cc2)cc1 [TCMDC-140559]: 100
CCN(CC)CCN(Cc1ccc(-c2ccc(C(F)(F)F)cc2)cc1)C(=O)c1ccc(-c2ccc(NC(=O)OC)cc2C)cc1 [TCMDC-141558]: 100
COc1ccc(CNCc2ccc(F)cc2)cc1-c1ccc(OC)c(S(=O)(=O)NCCN2CCCC2)c1 [TCMDC-132295]: 99
Cc1nn(CC(C)C)c2sc(C(=O)N3CCN(S(=O)(=O)c4ccc(C#N)cc4)CC3)cc12 [TCMDC-125045]: 92
O=C(Nc1ccc2c(c1)CCCN2S(=O)(=O)c1cccs1)c1cc([N+](=O)[O-])ccc1Cl [TCMDC-125153]: 100
Cc1cc(Nc2ccncc2)n2nc(C)c(-c3ccc(Cl)cc3)c2n1 [TCMDC-124478]: 100
CCN(CC)CCCNc1nccc(N2CCc3ncnc(Nc4ccc(OCc5cccc(F)c5)c(Cl)c4)c3C2)n1 [TCMDC-135406]: 100
c1ccc2sc(Sc3ncnc4sccc34)nc2c1 [TCMDC-125539]: 100
COc1cccc(CC(=O)N2CCC(n3c(C)nc4ccc(C)cc43)CC2)c1 [TCMDC-124791]: 100
Nc1ncc(-c2ccc3nccc(-c4ccncc4)c3c2)cc1S(=O)(=O)N1CCOCC1 [TCMDC-134180]: 100
CS(=O)(=O)c1cccc2sc(N3CCN(C(=O)c4ccc([N+](=O)[O-])o4)CC3)nc12 [TCMDC-124930]: 100
COc1ccc2nc(-c3cccc(C)n3)nc(Nc3ccncc3)c2c1 [TCMDC-134670]: 100
NCc1ccc(CNCc2cccc(-c3ccc(-c4nc5ccccc5[nH]4)cc3)c2)cc1 [TCMDC-132815]: 100
COc1ccc(C[C@H](N)C(=O)N[C@H]2[C@@H](O)[C@H](n3cnc4c(N(C)C)ncnc43)O[C@@H]2CO)cc1 [TCMDC-123493]: 100
C/C=C/C=C/C1=NCCc2cc(OCCC)ccc21 [TCMDC-137442]: 100
COc1cc2nc(N3CCC(CCCC4CCNCC4)CC3)nc(NCc3ccccn3)c2cc1OC [TCMDC-138494]: 100
CC(C)CNCc1cccc(-c2cccc(CN(CCCN3CCN(C)CC3)C(=O)NC3CCCCC3)c2)c1 [TCMDC-140633]: 96
COCCCNC(=S)NN=C(C)c1ccccn1 [TCMDC-137907]: 100
CC(C)(C)OC(=O)NCc1ccc(Nc2nnc(-c3ccc(OCC(=O)NCc4ccc(C(C)(C)C)cc4)c([N+](=O)[O-])c3)o2)cc1 [TCMDC-134991]: 100
Cc1ccc(Nc2nc(-c3ccccn3)cs2)nc1 [TCMDC-125854]: 100
